Target or system Prothrombin (Homo sapiens); metric pKi; compiled from varied reports.
pKi: −log10 of the molar value.

// recorded pKi for `CC(C)N1CC[C@@H](NC(=O)c2cc3ccccc3n2Cc2cc(-c3ccc(Cl)s3)on2)C1` : < 5.00

// recorded pKi for `N=C(N)c1cccc(-c2ccccc2C(=O)Nc2ccc(-c3ccccc3S(N)(=O)=O)cc2)c1.O=C(O)C(F)(F)F` : < 5.20

// recorded pKi for `N=C(N)Nc1ccc(CNC(=O)N2CCN(C(=O)CCCCCCCC(=O)N3CCN(C(=O)NCc4ccc(NC(=N)N)cc4)CC3)CC2)cc1` : < 3.00

// recorded pKi for `N=C(N)c1cccc(CN2CC[C@H](NS(=O)(=O)c3ccc4nc(N)ccc4c3)C2=O)c1` : < 5.40

// recorded pKi for CCOc1cc(C(Nc2ccc3cnccc3c2)C(=O)NS(=O)(=O)c2cccc(S(=O)(=O)N(C)C)c2)ccc1OC(C)C (stereo unspecified) : < 4.89

// recorded pKi for `N=C(N)c1cccc(Oc2nc(Oc3cccc(C(=N)N)c3)c(Cl)cc2Cl)c1` : < 5.30
